Origin of measurements: patent US20030105278A1

Biological target: human MCH receptor expressed from the open reading frame cDNA SEQ. ID. NO. 1 in 293-AEQ17 cells (human, UniProt Q99705 1-353)
Sequence (Q99705 whole entry): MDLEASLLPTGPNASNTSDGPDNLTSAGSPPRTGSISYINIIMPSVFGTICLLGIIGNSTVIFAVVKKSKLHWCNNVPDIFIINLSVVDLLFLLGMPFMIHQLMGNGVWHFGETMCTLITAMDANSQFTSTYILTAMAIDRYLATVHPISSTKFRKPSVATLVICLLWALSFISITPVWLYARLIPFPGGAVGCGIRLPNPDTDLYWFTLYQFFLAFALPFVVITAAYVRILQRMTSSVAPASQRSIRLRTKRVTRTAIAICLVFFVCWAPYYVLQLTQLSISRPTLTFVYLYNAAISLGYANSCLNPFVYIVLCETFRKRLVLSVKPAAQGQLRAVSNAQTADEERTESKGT
Assay: cell-based or functional assay
RECORDED_ENDPOINT: EC50

Which EC50 value is on record for RCMLGRVXRPC (Phe(pCOOH) at position 13; N-terminal acetyl, C-terminal amide, Cys-Cys disulfide as in SEQ. ID. NO. 7) [MCH analog SEQ. ID. NO. 68 (position 13: Phe(pCOOH))] ?
> 10 µM
